Biological target: GDP-bound KRAS protein (aa 1-169), containing both G12C and C118A amino acid substitutions (Homo sapiens, UniProt P01116, C118A/G12C)
Sequence (P01116 1-169 isoform P01116-2 G12C/C118A): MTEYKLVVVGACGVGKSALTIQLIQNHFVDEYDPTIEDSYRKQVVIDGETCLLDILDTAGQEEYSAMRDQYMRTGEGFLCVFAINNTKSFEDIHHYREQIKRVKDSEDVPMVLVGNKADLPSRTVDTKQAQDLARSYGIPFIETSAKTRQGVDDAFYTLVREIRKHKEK
Assay: Coupled nucleotide exchange assay (SOS-mediated, AlphaScreen)
Assay type: biochemical
Conditions: 5 min compound pre-incubation
readout name: Coupled exchange IC50 (5 min)

* C=CC(=O)N1CCN(c2nc(=O)n(-c3cccnc3C(C)(C)C)c3nc(-c4c(O)cccc4F)c(Cl)cc23)[C@@H](C)C1 (single isomer, unassigned) [Example 54-103-2] | 1.48 | nda μM
* C=CC(=O)N1CCN(c2nc(=O)n(-c3c(C)cccc3C(C)C)c3nc(-c4c(C)ccc5[nH]ncc45)c(F)cc23)[C@@H](C)C1 [68-2] | 0.947 | nda μM
* C=CC(=O)N1C[C@@H](C)N(c2nc(=O)n(-c3c(C)ccnc3C(C)C)c3nc(-c4c(O)cccc4F)c(Cl)cc23)[C@@H](C)C1 (atropisomer, axis not shown; (M)) | 0.023 | nda μM

Each recorded value in this set is attributed to patent US11090304B2.
